- Test target: PRMT5-MEP50 (Homo sapiens, UniProt O14744)
- Sequence (O14744 whole entry): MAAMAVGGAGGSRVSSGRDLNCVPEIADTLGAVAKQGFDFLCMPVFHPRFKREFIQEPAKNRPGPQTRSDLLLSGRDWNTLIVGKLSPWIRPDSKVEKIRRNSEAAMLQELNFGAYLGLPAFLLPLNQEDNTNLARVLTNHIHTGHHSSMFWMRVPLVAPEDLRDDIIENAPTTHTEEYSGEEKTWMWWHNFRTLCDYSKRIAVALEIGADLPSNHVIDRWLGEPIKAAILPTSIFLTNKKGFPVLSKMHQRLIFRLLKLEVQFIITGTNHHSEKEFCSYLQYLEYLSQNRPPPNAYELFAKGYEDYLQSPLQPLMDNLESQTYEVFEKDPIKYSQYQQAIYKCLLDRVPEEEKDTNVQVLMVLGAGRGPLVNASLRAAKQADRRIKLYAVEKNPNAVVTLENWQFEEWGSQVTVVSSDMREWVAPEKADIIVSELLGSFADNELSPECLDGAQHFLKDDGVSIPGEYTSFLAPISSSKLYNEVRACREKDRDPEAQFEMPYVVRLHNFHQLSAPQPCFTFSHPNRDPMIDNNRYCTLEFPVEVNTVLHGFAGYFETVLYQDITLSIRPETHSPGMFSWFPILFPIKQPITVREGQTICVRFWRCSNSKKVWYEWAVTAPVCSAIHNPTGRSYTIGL
- Sequence (Q9BQA1 whole entry partner): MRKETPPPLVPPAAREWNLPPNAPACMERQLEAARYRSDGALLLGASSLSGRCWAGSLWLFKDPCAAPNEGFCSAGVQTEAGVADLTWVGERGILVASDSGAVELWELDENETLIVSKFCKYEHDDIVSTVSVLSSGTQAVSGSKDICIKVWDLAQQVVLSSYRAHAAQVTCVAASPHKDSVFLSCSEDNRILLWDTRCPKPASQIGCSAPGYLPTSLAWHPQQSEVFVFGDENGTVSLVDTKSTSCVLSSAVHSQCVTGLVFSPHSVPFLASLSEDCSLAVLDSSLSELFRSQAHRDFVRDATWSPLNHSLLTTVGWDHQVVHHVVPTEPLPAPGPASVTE
- Method summary: PRMT5 Assay (PRMT5 biochemical assay)
- Settings: PRMT5 biochemical assay; read-out: PRMT5 IC50
Measurement type: IC50

Examples with their reported IC50 follow.
INSERT INTO results (record_smiles, measurement_type, value_reported) VALUES
  ('Cc1cc(N)c2ccc(OC[C@H]3O[C@@H](n4cc(C5CCCC5)c5c(N)ncnc54)[C@H](O)[C@@H]3O)cc2n1', 'IC50', '10 to 100 nM'),
  ('CNc1ccc2cc(F)c(CC[C@H]3C[C@@H](n4ccc5c(N)ncnc54)[C@H](O)[C@@H]3O)cc2n1', 'IC50', '< 10 nM'),
  ('CC1(C)COC(c2cn([C@@H]3O[C@H](COc4ccc5ccc(N6CCC6)nc5c4)[C@@H](O)[C@@H]3F)c3ncnc(N)c23)=N1', 'IC50', '> 1000 nM');

Which IC50 value is on record for `Nc1ncnc2c1ccn2[C@@H]1C[C@H](CCc2ccc3cc(Br)cnc3c2)[C@@H](O)[C@H]1O` ?
< 10 nM

Now the compound `CNc1ccc2ccc(OC[C@H]3O[C@@H](n4cc(Cl)c5c(N)ncnc54)[C@H](O)[C@@H]3O)cc2n1`
< 10 nM

Quick one: `Nc1ncnc2c1ccn2[C@@H]1C[C@H](COc2ccc3ccc(N4CCCC4)nc3c2)[C@@H](O)[C@H]1O`
100 to 1000 nM

Try this compound next: `CN(C)c1ccc2ccc(OC[C@H]3O[C@@H](n4cc(C5CCCC5)c5c(N)ncnc54)[C@H](O)[C@@H]3O)cc2n1`
10 to 100 nM

----------
- Test target: METTL3/METTL14 (Homo sapiens, UniProt Q86U44)
- Sequence (Q86U44 whole entry, species assumed): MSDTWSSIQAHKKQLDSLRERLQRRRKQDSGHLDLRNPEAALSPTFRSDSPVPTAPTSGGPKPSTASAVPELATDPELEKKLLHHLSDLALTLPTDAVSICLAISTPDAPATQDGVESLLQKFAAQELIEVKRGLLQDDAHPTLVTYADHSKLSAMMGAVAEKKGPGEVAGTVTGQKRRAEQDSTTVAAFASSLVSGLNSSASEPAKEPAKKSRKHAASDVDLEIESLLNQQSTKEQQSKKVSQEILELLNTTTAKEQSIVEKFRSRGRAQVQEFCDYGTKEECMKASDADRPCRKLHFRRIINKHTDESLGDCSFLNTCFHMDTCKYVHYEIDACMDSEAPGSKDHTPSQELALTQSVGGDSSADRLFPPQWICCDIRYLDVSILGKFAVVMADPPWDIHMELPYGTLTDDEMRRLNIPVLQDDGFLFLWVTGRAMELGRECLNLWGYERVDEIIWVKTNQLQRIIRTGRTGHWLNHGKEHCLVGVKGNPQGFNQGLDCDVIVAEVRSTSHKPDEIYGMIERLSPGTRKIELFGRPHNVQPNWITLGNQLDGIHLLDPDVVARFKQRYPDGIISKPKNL
- Sequence (Q9HCE5 whole entry partner, species assumed): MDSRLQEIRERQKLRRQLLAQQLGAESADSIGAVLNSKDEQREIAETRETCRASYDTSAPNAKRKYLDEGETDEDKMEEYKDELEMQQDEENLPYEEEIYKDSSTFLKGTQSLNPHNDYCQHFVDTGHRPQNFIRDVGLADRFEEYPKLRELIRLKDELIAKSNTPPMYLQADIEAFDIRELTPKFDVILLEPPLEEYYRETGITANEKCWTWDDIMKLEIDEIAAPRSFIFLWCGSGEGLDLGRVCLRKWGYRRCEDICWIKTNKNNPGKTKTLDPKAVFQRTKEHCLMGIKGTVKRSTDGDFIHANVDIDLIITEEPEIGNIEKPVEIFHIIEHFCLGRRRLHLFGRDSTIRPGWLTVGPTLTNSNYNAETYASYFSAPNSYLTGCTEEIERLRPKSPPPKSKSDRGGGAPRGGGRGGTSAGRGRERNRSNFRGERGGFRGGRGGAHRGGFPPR
- Method summary: METTL3-14 Standard Enzyme Assay (METTL3 biochemical assay)
Measurement type: IC50

The examples below pair each entry with its known result.
INSERT INTO assay_data (record_smiles, test_target, measurement_type, value_reported) VALUES
  ('CCc1nc2cc(OC[C@H]3O[C@@H](n4cc(-c5ccn(C)n5)c5c(N)ncnc54)[C@@H](F)[C@@H]3O)ccc2o1', 'METTL3/METTL14 (Homo sapiens, UniProt Q86U44)', 'IC50', '> 1000 nM'),
  ('Cn1ccc(-c2cn([C@H]3C[C@H](O)[C@@H](COc4ccc5ccc(NC6CC6)nc5c4)O3)c3ncnc(N)c23)n1', 'METTL3/METTL14 (Homo sapiens, UniProt Q86U44)', 'IC50', '< 10 nM'),
  ('Cn1ccc(-c2cn([C@@H]3C[C@H](COc4ccc5ccc(N6CCC6)nc5c4)[C@@H](O)C3)c3ncnc(N)c23)n1', 'METTL3/METTL14 (Homo sapiens, UniProt Q86U44)', 'IC50', '< 10 nM'),
  ('Nc1ncnc2c1c(-n1cccn1)cn2[C@@H]1C[C@H](CCc2cc3nc(N4CCC4)ccc3cc2F)[C@@H](O)C1', 'METTL3/METTL14 (Homo sapiens, UniProt Q86U44)', 'IC50', '< 10 nM'),
  ('Cn1ccc(-c2cn([C@@H]3O[C@H](COc4ccc5cnc(N6CCC6)nc5c4)[C@@H](O)[C@@H]3F)c3ncnc(N)c23)n1', 'METTL3/METTL14 (Homo sapiens, UniProt Q86U44)', 'IC50', '< 10 nM'),
  ('CCNc1ccc2ccc(CC[C@H]3C[C@@H](n4cc(-n5cccn5)c5c(N)ncnc54)C[C@@H]3O)cc2n1', 'METTL3/METTL14 (Homo sapiens, UniProt Q86U44)', 'IC50', '< 10 nM'),
  ('CN(c1ccc2ccc(OC[C@H]3O[C@@H](n4cc(-c5ccn(C)n5)c5c(N)ncnc54)[C@@H](F)[C@@H]3O)cc2n1)C1CCC1', 'METTL3/METTL14 (Homo sapiens, UniProt Q86U44)', 'IC50', '< 10 nM'),
  ('CNc1nc2cc(OC[C@H]3O[C@@H](n4cc(-c5ccn(C)n5)c5c(N)ncnc54)[C@@H](F)[C@@H]3O)ccc2o1', 'METTL3/METTL14 (Homo sapiens, UniProt Q86U44)', 'IC50', '100 to 1000 nM'),
  ('Cn1ccc(-c2cn([C@@H]3O[C@H](COc4ccc5sc(N6CCC6)nc5c4)[C@@H](O)[C@@H]3F)c3ncnc(N)c23)n1', 'METTL3/METTL14 (Homo sapiens, UniProt Q86U44)', 'IC50', '10 to 100 nM'),
  ('CN(CCS(C)(=O)=O)c1ccc2ccc(OC[C@H]3O[C@@H](n4cc(-c5ccn(C)n5)c5c(N)ncnc54)[C@@H](F)[C@@H]3O)cc2n1', 'METTL3/METTL14 (Homo sapiens, UniProt Q86U44)', 'IC50', '100 to 1000 nM');

Request the reported IC50 associated with `CCc1cc(N(C)C2CC2)c2ccc(OC[C@H]3O[C@@H](n4cc(-c5ccn(C)n5)c5c(N)ncnc54)[C@@H](F)[C@@H]3O)cc2n1`
< 10 nM

Okay, and `CNc1nc2cc(OC[C@H]3O[C@@H](n4cc(-n5ccc(C)n5)c5c(N)ncnc54)C[C@@H]3O)ccc2cc1F` ?
> 1000 nM

What would you report for `CNc1ccc2ccc(OC[C@H]3O[C@@H](n4cc(-c5cn(C(C)C)cn5)c5c(N)ncnc54)[C@@H](F)[C@@H]3O)cc2n1` ?
10 to 100 nM

Subsequent entry: `Cn1ccc(-c2cn([C@H]3C[C@H](O)[C@@H](COc4ccc5ccc(N6CC(N)C6)nc5c4)O3)c3ncnc(N)c23)n1`
< 10 nM
